Tested on: SK-MEL-28 melanoma
Experiment: NCI-60 one-dose screen, 48 h (100 = growth as untreated, 0 = no growth, -100 = all killed)
Conditions: 10 µM unless noted
About 83,000 compounds went through this panel and 20% of them were active in at least one assay; those are over-represented in the sample as a whole.
measuredMetric: growth (%)
# value in %; strip the unit string

Below, each entry is followed by its recorded growth result.
O=C1C=CC(Nc2ccccc2[N+](=O)[O-])C1Nc1ccccc1[N+](=O)[O-] (stereo not given)	-92.9
CC1CN(C(C)C)C(=S)N(c2ccccc2)C1=O (stereo not given)	122
COc1ccc(CCN2CC=Cn3c2nc2ccccc2c3=O)cc1	78.7
Cc1[nH]n(-c2ccccc2)c2nc3nncc3c(-c3ccc(Cl)cc3)c12	104
COc1ccc(OCC(=O)Nc2ccc(-c3nc4ccccc4s3)cc2C)cc1	107
CCCCN(CCCC)Cc1c(C)[nH]c2cc(OC)ccc2c1=O	112

### Prompt Item under review: CCCCCCCCCC(=O)Oc1ccc(/C(=C(/C)Cc2cccc(OC)c2)c2ccc(OCCN(C)C)cc2)cc1 . Reported growth?
### Response 114

### Prompt Item under review: Cc1ccc(NC(=O)c2sc3nc4c(cc3c2N)C(=O)CCC4)cc1C . Reported growth?
### Response 37.3

### Prompt Item under review: CCCCCC(=O)N(CCCC)CCCC . Reported growth?
### Response 104

### Prompt Item under review: O=C(CN1CCOCC1)Nc1ccc(Cn2nnc3c2C(=O)c2nnn(Cc4ccc(NC(=O)CN5CCOCC5)cc4)c2C3=O)cc1 . Reported growth?
### Response -34.6
